Give measured viability, T/C for each item. Keep answers brief.
System: K98450-129-R-PDC multicell spheroids, viability
Test: Anticancer human tumor K98450-129-R-PDC patient-derived colon adenocarcinoma cell line growth inhibition [PI3K]
Conditions: second compound 1 µM; first compound 0.0316 µM; active compounds read low
Source text: Combinatorial screen of targeted agents with the PI3K inhibitors inavolisib, alpelisib, duvelisib, and copanlisib in multi-cell type tumor spheroids A high-throughput screen of multi-cell type tumor spheroids was designed to identify active combinations of targeted small molecules and PI3K pathway inhibitors. […] Compounds. […] If the clinical Cmax for an agent had not been determined, the highest concentration tested was 10 microM. […]
Number only, in %; omit the unit.

Find viability, T/C (K98450-129-R-PDC multicell spheroids, viability) for the entry Cn1ncnc1[C@H]1c2n[nH]c(=O)c3cc(F)cc(c23)N[C@@H]1c1ccc(F)cc1 + COc1c(OCCCN2CCOCC2)ccc2c3n(c(=NC(=O)c4cnc(N)nc4)nc12)CCN3
56.5

Let us now turn to CCCS(=O)(=O)Nc1ccc(F)c(C(=O)c2c[nH]c3ncc(-c4ccc(Cl)cc4)cc23)c1F + COc1c(OCCCN2CCOCC2)ccc2c3n(c(=NC(=O)c4cnc(N)nc4)nc12)CCN3
57.6

Let us now turn to CC(=O)c1c(C)c2cnc(Nc3ccc(N4CCNCC4)cn3)nc2n(C2CCCC2)c1=O + CC(Nc1ncnc2nc[nH]c12)c1cc2cccc(Cl)c2c(=O)n1-c1ccccc1
101

Let us now turn to Cn1nccc1Nc1nccc(-c2ccn(C(CO)c3ccc(Cl)c(F)c3)c(=O)c2)n1 (configuration not stated) + Cc1nc(NC(=O)N2CCCC2C(N)=O)sc1-c1ccnc(C(C)(C)C(F)(F)F)c1
91.6

Let us now turn to CNC(=O)c1ccc(N2C(=S)N(c3ccc(C#N)c(C(F)(F)F)c3)C(=O)C2(C)C)cc1F + Cc1nc(NC(=O)N2CCCC2C(N)=O)sc1-c1ccnc(C(C)(C)C(F)(F)F)c1
90.5

Let us now turn to C[C@@H](NC(=O)c1ncnc(N)c1Cl)c1ncc(C(=O)Nc2cc(C(F)(F)F)c(Cl)cn2)s1 + COc1c(OCCCN2CCOCC2)ccc2c3n(c(=NC(=O)c4cnc(N)nc4)nc12)CCN3
58.3

Let us now turn to CCCS(=O)(=O)Nc1ccc(F)c(C(=O)c2c[nH]c3ncc(-c4ccc(Cl)cc4)cc23)c1F + CC(Nc1ccc2c(c1)OCCn1cc(N3C(=O)OCC3C(F)F)nc1-2)C(N)=O
88.3

Let us now turn to CC(=O)c1c(C)c2cnc(Nc3ccc(N4CCNCC4)cn3)nc2n(C2CCCC2)c1=O + CC(Nc1ccc2c(c1)OCCn1cc(N3C(=O)OCC3C(F)F)nc1-2)C(N)=O
96.1

Let us now turn to CC(C)NCC(C(=O)N1CCN(c2ncnc3c2C(C)CC3O)CC1)c1ccc(Cl)cc1 (configuration not stated) + Cc1nc(NC(=O)N2CCCC2C(N)=O)sc1-c1ccnc(C(C)(C)C(F)(F)F)c1
84.6

Let us now turn to CNC(=O)c1ccc(N2C(=S)N(c3ccc(C#N)c(C(F)(F)F)c3)C(=O)C2(C)C)cc1F + CC(Nc1ncnc2nc[nH]c12)c1cc2cccc(Cl)c2c(=O)n1-c1ccccc1
92.8

Let us now turn to CC(Cn1ccc(-c2ccc(C#N)c(Cl)c2)n1)NC(=O)c1cc(C(C)O)[nH]n1 (configuration not stated) + CC(Nc1ncnc2nc[nH]c12)c1cc2cccc(Cl)c2c(=O)n1-c1ccccc1
94.7

Let us now turn to CCN1CCN(Cc2ccc(Nc3ncc(F)c(-c4cc(F)c5nc(C)n(C(C)C)c5c4)n3)nc2)CC1 + CC(Nc1ncnc2nc[nH]c12)c1cc2cccc(Cl)c2c(=O)n1-c1ccccc1
95.9

###

Give measured viability, T/C for each item. Keep answers brief.
Test system: K98450-129-R-PDC multicell spheroids, viability
Test: Anticancer human tumor K98450-129-R-PDC cell line growth inhibition [PI3K];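 note: spheroids exposed to agents for seven days before read-out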
Conditions: second compound 0.0316 µM; first compound 10 µM; active compounds read low
Source text: Combinatorial screen of targeted agents with the PI3K inhibitors inavolisib, alpelisib, duvelisib, and copanlisib in multi-cell type tumor spheroids A high-throughput screen of multi-cell type tumor spheroids was designed to identify active combinations of targeted small molecules and PI3K pathway inhibitors. […] Compounds. […] If the clinical Cmax for an agent had not been determined, the highest concentration tested was 10 microM. […]
Number only, in %; omit the unit.

I am curious: what viability, T/C value has been reported for CC(C)NCC(C(=O)N1CCN(c2ncnc3c2C(C)CC3O)CC1)c1ccc(Cl)cc1 (configuration not stated) + CC(Nc1ccc2c(c1)OCCn1cc(N3C(=O)OCC3C(F)F)nc1-2)C(N)=O ?
96.9

Let us now turn to CC1(C)CCC(CN2CCN(c3ccc(C(=O)NS(=O)(=O)c4ccc(NCC5CCOCC5)c([N+](=O)[O-])c4)c(Oc4cnc5[nH]ccc5c4)c3)CC2)=C(c2ccc(Cl)cc2)C1 + Cc1nc(NC(=O)N2CCCC2C(N)=O)sc1-c1ccnc(C(C)(C)C(F)(F)F)c1
12.2

Let us now turn to C[C@@H](NC(=O)c1ncnc(N)c1Cl)c1ncc(C(=O)Nc2cc(C(F)(F)F)c(Cl)cn2)s1 + CC(Nc1ncnc2nc[nH]c12)c1cc2cccc(Cl)c2c(=O)n1-c1ccccc1
104

Let us now turn to CC(C)NCC(C(=O)N1CCN(c2ncnc3c2C(C)CC3O)CC1)c1ccc(Cl)cc1 (configuration not stated) + CC(Nc1ncnc2nc[nH]c12)c1cc2cccc(Cl)c2c(=O)n1-c1ccccc1
98.5

Let us now turn to Cn1nccc1Nc1nccc(-c2ccn(C(CO)c3ccc(Cl)c(F)c3)c(=O)c2)n1 (configuration not stated) + CC(Nc1ncnc2nc[nH]c12)c1cc2cccc(Cl)c2c(=O)n1-c1ccccc1
85.8

Let us now turn to Cn1nccc1Nc1nccc(-c2ccn(C(CO)c3ccc(Cl)c(F)c3)c(=O)c2)n1 (configuration not stated) + Cc1nc(NC(=O)N2CCCC2C(N)=O)sc1-c1ccnc(C(C)(C)C(F)(F)F)c1
89.2

Let us now turn to CCCS(=O)(=O)Nc1ccc(F)c(C(=O)c2c[nH]c3ncc(-c4ccc(Cl)cc4)cc23)c1F + CC(Nc1ncnc2nc[nH]c12)c1cc2cccc(Cl)c2c(=O)n1-c1ccccc1
2.37

###

Tested on: K98450-129-R-PDC multicell spheroids, viability
Assay: Anticancer human tumor K98450-129-R-PDC cell line growth inhibition [PI3K];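 note: spheroids exposed to agents for seven days before read-out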
Settings: second compound 1 µM; first compound 1 µM; active compounds read low
measurement-label: viability, T/C (%)
Number only, in %; omit the unit.

Find viability, T/C (K98450-129-R-PDC multicell spheroids, viability) for the entry CC(C)NCC(C(=O)N1CCN(c2ncnc3c2C(C)CC3O)CC1)c1ccc(Cl)cc1 (stereo not given) + CC(Nc1ccc2c(c1)OCCn1cc(N3C(=O)OCC3C(F)F)nc1-2)C(N)=O
94.1

Let us now turn to C[C@@H](NC(=O)c1ncnc(N)c1Cl)c1ncc(C(=O)Nc2cc(C(F)(F)F)c(Cl)cn2)s1 + COc1c(OCCCN2CCOCC2)ccc2c3n(c(=NC(=O)c4cnc(N)nc4)nc12)CCN3
62.1

Let us now turn to C=CC(=O)N1CCN(c2nc(=O)n(-c3c(C)ccnc3C(C)C)c3nc(-c4c(O)cccc4F)c(F)cc23)C(C)C1 (stereo not given) + CC(Nc1ncnc2nc[nH]c12)c1cc2cccc(Cl)c2c(=O)n1-c1ccccc1
73.9

Let us now turn to CC1(C)CCC(Nc2ncc(C(F)(F)F)c(-c3c[nH]c4c(P(C)(C)=O)c(C#N)ccc34)n2)CN1 (stereo not given) + CC(Nc1ccc2c(c1)OCCn1cc(N3C(=O)OCC3C(F)F)nc1-2)C(N)=O
67.5

Let us now turn to CCN1CCN(Cc2ccc(Nc3ncc(F)c(-c4cc(F)c5nc(C)n(C(C)C)c5c4)n3)nc2)CC1 + Cc1nc(NC(=O)N2CCCC2C(N)=O)sc1-c1ccnc(C(C)(C)C(F)(F)F)c1
85.6

Let us now turn to CCN1CCN(Cc2ccc(Nc3ncc(F)c(-c4cc(F)c5nc(C)n(C(C)C)c5c4)n3)nc2)CC1 + CC(Nc1ncnc2nc[nH]c12)c1cc2cccc(Cl)c2c(=O)n1-c1ccccc1
102

Let us now turn to CC1(C)CCC(Nc2ncc(C(F)(F)F)c(-c3c[nH]c4c(P(C)(C)=O)c(C#N)ccc34)n2)CN1 (stereo not given) + Cc1nc(NC(=O)N2CCCC2C(N)=O)sc1-c1ccnc(C(C)(C)C(F)(F)F)c1
69.6

Let us now turn to CNC(=O)c1ccc(N2C(=S)N(c3ccc(C#N)c(C(F)(F)F)c3)C(=O)C2(C)C)cc1F + CC(Nc1ncnc2nc[nH]c12)c1cc2cccc(Cl)c2c(=O)n1-c1ccccc1
102

Let us now turn to Cn1nccc1Nc1nccc(-c2ccn(C(CO)c3ccc(Cl)c(F)c3)c(=O)c2)n1 (stereo not given) + COc1c(OCCCN2CCOCC2)ccc2c3n(c(=NC(=O)c4cnc(N)nc4)nc12)CCN3
43.9

Let us now turn to Cn1ncc(Cl)c1-c1cc(C(=O)NC(CN)Cc2cccc(F)c2)sc1Cl (stereo not given) + Cc1nc(NC(=O)N2CCCC2C(N)=O)sc1-c1ccnc(C(C)(C)C(F)(F)F)c1
89.6

Let us now turn to CCCS(=O)(=O)Nc1ccc(F)c(C(=O)c2c[nH]c3ncc(-c4ccc(Cl)cc4)cc23)c1F + CC(Nc1ccc2c(c1)OCCn1cc(N3C(=O)OCC3C(F)F)nc1-2)C(N)=O
97

Let us now turn to C#Cc1c(F)ccc2cc(O)cc(-c3ncc4c(N5CC6CCC(C5)N6)nc(OCC56CCCN5CC(F)C6)nc4c3F)c12 (stereo not given) + COc1c(OCCCN2CCOCC2)ccc2c3n(c(=NC(=O)c4cnc(N)nc4)nc12)CCN3
51.2

Let us now turn to Cn1nccc1Nc1nccc(-c2ccn(C(CO)c3ccc(Cl)c(F)c3)c(=O)c2)n1 (stereo not given) + CC(Nc1ccc2c(c1)OCCn1cc(N3C(=O)OCC3C(F)F)nc1-2)C(N)=O
87.7

Let us now turn to CCCS(=O)(=O)Nc1ccc(F)c(C(=O)c2c[nH]c3ncc(-c4ccc(Cl)cc4)cc23)c1F + COc1c(OCCCN2CCOCC2)ccc2c3n(c(=NC(=O)c4cnc(N)nc4)nc12)CCN3
59.9

Let us now turn to CC(C)NCC(C(=O)N1CCN(c2ncnc3c2C(C)CC3O)CC1)c1ccc(Cl)cc1 (stereo not given) + CC(Nc1ncnc2nc[nH]c12)c1cc2cccc(Cl)c2c(=O)n1-c1ccccc1
98.4

Let us now turn to CC1(C)CCC(CN2CCN(c3ccc(C(=O)NS(=O)(=O)c4ccc(NCC5CCOCC5)c([N+](=O)[O-])c4)c(Oc4cnc5[nH]ccc5c4)c3)CC2)=C(c2ccc(Cl)cc2)C1 + CC(Nc1ccc2c(c1)OCCn1cc(N3C(=O)OCC3C(F)F)nc1-2)C(N)=O
90.2

Let us now turn to C=CC(=O)N1CCN(c2nc(=O)n(-c3c(C)ccnc3C(C)C)c3nc(-c4c(O)cccc4F)c(F)cc23)C(C)C1 (stereo not given) + COc1c(OCCCN2CCOCC2)ccc2c3n(c(=NC(=O)c4cnc(N)nc4)nc12)CCN3
22.6

Let us now turn to C=CC(=O)N1CCN(c2nc(=O)n(-c3c(C)ccnc3C(C)C)c3nc(-c4c(O)cccc4F)c(F)cc23)C(C)C1 (stereo not given) + Cc1nc(NC(=O)N2CCCC2C(N)=O)sc1-c1ccnc(C(C)(C)C(F)(F)F)c1
69

Let us now turn to CC1(C)CCC(CN2CCN(c3ccc(C(=O)NS(=O)(=O)c4ccc(NCC5CCOCC5)c([N+](=O)[O-])c4)c(Oc4cnc5[nH]ccc5c4)c3)CC2)=C(c2ccc(Cl)cc2)C1 + COc1c(OCCCN2CCOCC2)ccc2c3n(c(=NC(=O)c4cnc(N)nc4)nc12)CCN3
54.6

Let us now turn to Cn1ncc(Cl)c1-c1cc(C(=O)NC(CN)Cc2cccc(F)c2)sc1Cl (stereo not given) + COc1c(OCCCN2CCOCC2)ccc2c3n(c(=NC(=O)c4cnc(N)nc4)nc12)CCN3
65.7

Where these numbers come from: PubChem BioAssay AID1963961
